Attribution: patent US20220177594A1

target_entity: T1, ANTIBODY EXPRESSION CONTROL
T1 construct: also called mouse anti-canine antibody (capture reagent of the expression control ELISA)
assay_overview: SPR Biacore, expression control
Rule: kon of 300000 M⁻¹ s⁻¹ or more gives 1 (yes); anything lower gives 0 (no).

INSERT INTO results (binder, group) VALUES
  ('Mu_02D09_VH (SEQ ID NO: 31)_D99A (antibody, V domains shown) VH: EVQLVESGGGLVKPGGSLTLSCAASGFTFSDYGMHWLRQAPEKGLEWVAYISSGSRAVFFADTVKGRFTISRDNAKNTLFLQMTSLRSDDTAMYYCARARYDGRGFAYWGQGTLVTVSA VL: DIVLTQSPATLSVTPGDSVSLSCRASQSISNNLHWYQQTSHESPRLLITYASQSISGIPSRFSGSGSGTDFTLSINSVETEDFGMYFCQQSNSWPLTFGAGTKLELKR', '0 (no)'),
  ('Mu_09E09_VH (SEQ ID NO: 35)_I101A (antibody, V domains shown) VH: DVKLVESGEGLVKPGGSLKLSCAASGFTFSSYAMSWVRQTPEKRLEWVAYISSGGDYIYYADTVKGRFTISRDNARNTLYLQMSSLKSEDTAMYYCTRDPATGTFAYWGQGTLVTVSA VL: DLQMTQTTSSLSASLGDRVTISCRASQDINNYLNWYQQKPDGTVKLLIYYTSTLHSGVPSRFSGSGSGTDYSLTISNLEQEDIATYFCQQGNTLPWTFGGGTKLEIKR', '1 (yes)'),
  ('mouse: canine 02D09 chimera (antibody, V domains shown, Mouse variable domains on canine IgG constant regions; also called 02D09 (Mouse:Canine); chimeric 02D09) VH: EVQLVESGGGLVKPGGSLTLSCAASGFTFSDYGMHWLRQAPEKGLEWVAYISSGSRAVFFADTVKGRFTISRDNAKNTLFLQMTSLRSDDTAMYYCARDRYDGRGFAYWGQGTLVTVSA VL: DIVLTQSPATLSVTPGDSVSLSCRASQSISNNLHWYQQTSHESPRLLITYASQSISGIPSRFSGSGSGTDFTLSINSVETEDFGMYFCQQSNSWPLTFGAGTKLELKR', '0 (no)'),
  ('Mu_09E09_VL (SEQ ID NO: 37)_Y50A (antibody, V domains shown) VH: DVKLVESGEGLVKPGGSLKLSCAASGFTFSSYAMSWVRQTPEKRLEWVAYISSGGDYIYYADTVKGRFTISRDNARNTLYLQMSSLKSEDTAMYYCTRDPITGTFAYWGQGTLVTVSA VL: DLQMTQTTSSLSASLGDRVTISCRASQDINNYLNWYQQKPDGTVKLLIYATSTLHSGVPSRFSGSGSGTDYSLTISNLEQEDIATYFCQQGNTLPWTFGGGTKLEIKR', '1 (yes)'),
  ('mouse: canine 09E09 chimera (antibody, V domains shown, Mouse variable domains on canine IgG constant regions; also called 09E09 (Mouse:Canine); mouse:dog chimera 09E09) VH: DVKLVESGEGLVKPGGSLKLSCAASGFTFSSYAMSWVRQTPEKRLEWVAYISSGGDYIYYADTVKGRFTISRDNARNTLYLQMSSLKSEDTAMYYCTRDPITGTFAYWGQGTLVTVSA VL: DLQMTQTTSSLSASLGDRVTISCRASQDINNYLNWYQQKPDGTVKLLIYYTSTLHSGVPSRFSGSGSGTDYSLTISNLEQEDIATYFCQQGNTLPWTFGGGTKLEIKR', '1 (yes)'),
  ('Mu_09E09_VL (SEQ ID NO: 37)_N34A (antibody, V domains shown) VH: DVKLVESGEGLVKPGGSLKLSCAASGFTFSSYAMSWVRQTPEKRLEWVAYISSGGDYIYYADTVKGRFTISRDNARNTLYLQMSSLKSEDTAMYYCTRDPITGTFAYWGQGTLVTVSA VL: DLQMTQTTSSLSASLGDRVTISCRASQDINNYLAWYQQKPDGTVKLLIYYTSTLHSGVPSRFSGSGSGTDYSLTISNLEQEDIATYFCQQGNTLPWTFGGGTKLEIKR', '0 (no)');

Problem: Is it the case that Mu_02D09_VH (SEQ ID NO: 31)_Y32A (antibody, V domains shown) VH: EVQLVESGGGLVKPGGSLTLSCAASGFTFSDAGMHWLRQAPEKGLEWVAYISSGSRAVFFADTVKGRFTISRDNAKNTLFLQMTSLRSDDTAMYYCARDRYDGRGFAYWGQGTLVTVSA VL: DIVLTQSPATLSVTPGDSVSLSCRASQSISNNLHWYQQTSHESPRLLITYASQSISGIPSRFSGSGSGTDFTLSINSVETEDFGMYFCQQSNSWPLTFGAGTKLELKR has kon reaching or exceeding 300000 M⁻¹ s⁻¹?
Result: 0 (no)

Problem: Another: Mu_09E09_VL (SEQ ID NO: 37)_Q90A (antibody, V domains shown) VH: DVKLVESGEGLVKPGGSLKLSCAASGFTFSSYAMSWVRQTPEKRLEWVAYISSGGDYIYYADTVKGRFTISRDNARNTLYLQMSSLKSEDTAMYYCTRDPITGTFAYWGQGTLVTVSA VL: DLQMTQTTSSLSASLGDRVTISCRASQDINNYLNWYQQKPDGTVKLLIYYTSTLHSGVPSRFSGSGSGTDYSLTISNLEQEDIATYFCQAGNTLPWTFGGGTKLEIKR
Result: 0 (no)

Problem: Another: Mu_10F07_VL (SEQ ID NO: 41)_T97A (antibody, V domains shown) VH: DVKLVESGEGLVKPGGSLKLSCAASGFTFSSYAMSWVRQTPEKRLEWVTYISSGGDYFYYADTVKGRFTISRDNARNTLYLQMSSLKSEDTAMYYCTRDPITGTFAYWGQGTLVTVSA VL: DIQMTQTTSSLSASLGDRVTISCRASQDITNYLNWYQQKPDGTVKLLIYYTSTLHSGVPSRFSGSGSGTDFSLTISNLEQEDIATYFCQQGHMLPWAFGGGTKLEIKR
Result: 0 (no)
